# STUDY TARGET: Melanocortin receptor 4 (Homo sapiens, UniProt P32245)
# Sequence (P32245 whole entry): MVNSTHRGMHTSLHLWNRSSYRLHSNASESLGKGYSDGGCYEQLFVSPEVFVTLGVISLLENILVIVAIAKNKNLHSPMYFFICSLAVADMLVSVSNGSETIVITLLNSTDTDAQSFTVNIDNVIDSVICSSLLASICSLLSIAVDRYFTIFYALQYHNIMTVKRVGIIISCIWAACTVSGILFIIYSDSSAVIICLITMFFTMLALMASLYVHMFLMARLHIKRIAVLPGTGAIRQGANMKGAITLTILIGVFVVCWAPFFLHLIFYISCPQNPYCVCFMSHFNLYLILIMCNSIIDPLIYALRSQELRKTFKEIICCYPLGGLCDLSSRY
# EXPERIMENT NOTES: Binding affinity towards human melanocortin 4 receptor was determined using [125I]-NDP-alpha-MSH as radioligand transfected in HEK293 human embryonic kidney cells
# Type: cell-based
# CONDITION SET: hek293; read-out: EC50
ASSAY READOUT: binding affinity (radioligand displacement) (nM)
// return numeric value only (unit: nM, not printed)

{"SMILES CODE": "CC(=O)N[C@@H](Cc1c[nH]cn1)C(=O)N[C@H](Cc1ccccc1)C(=O)N[C@@H](CCCN=C(N)N)C(=O)N[C@@H](Cc1c[nH]c2ccccc12)C(=O)NCCCC[C@H](NC(=O)CCNC(=O)CNC(=O)CCNC(=O)[C@H](Cc1c[nH]c2ccccc12)NC(=O)[C@H](CCCN=C(N)N)NC(=O)[C@@H](Cc1ccccc1)NC(=O)[C@H](Cc1c[nH]cn1)NC(C)=O)C(=O)NCCC(=O)NCC(=O)NCCC(=O)N[C@@H](Cc1c[nH]cn1)C(=O)N[C@H](Cc1ccccc1)C(=O)N[C@@H](CCCN=C(N)N)C(=O)N[C@@H](Cc1c[nH]c2ccccc12)C(N)=O", "UNIT": "nM", "REPORTED": 24}

Now, please, on to the next compound.
Write down the reported binding affinity (radioligand displacement) of CC(=O)N[C@@H](Cc1c[nH]cn1)C(=O)N[C@H](Cc1ccccc1)C(=O)N[C@@H](CCCN=C(N)N)C(=O)N[C@@H](Cc1c[nH]c2ccccc12)C(=O)NCCCC[C@H](NC(=O)CCNC(=O)[C@H](Cc1c[nH]c2ccccc12)NC(=O)[C@H](CCCN=C(N)N)NC(=O)[C@@H](Cc1ccccc1)NC(=O)[C@H](Cc1c[nH]cn1)NC(C)=O)C(=O)NCCC(=O)N[C@@H](Cc1c[nH]cn1)C(=O)N[C@H](Cc1ccccc1)C(=O)N[C@@H](CCCN=C(N)N)C(=O)N[C@@H](Cc1c[nH]c2ccccc12)C(N)=O , test system: Melanocortin receptor 4 (Homo sapiens, UniProt P32245).
15

From: ChEMBL document CHEMBL1146694
